Biological target: Gal(b1-3)GlcNAc(b1-3)Gal(b1-3)GlcNAc
Experiment: glycan array binding signal (z-score within array); higher = stronger binding
Settings: glycan notation: IUPAC condensed, linker removed
The full list was thinned out, with the strongest signals kept by preference.
quantity_kind: glycan array binding signal (z-score)
// keep it numeric: no unit symbol after the value

q: State the recorded glycan array binding signal (z-score) for this entry: Tamarinin (protein) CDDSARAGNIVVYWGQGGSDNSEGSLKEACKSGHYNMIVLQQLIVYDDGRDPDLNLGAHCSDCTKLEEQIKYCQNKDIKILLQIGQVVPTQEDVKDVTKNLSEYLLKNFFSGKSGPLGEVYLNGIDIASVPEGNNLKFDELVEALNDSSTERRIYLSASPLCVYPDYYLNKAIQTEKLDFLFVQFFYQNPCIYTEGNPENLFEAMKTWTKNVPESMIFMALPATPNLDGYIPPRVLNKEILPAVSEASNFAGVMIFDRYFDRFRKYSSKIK
a: -0.135
